target: HLA-A*68:01; experiment: IEDB peptide-MHC binding, purified MHC/competitive/radioactivity; filed as Kd, often an IC50 or EC50 that approximates it; bounds were set here for any values at or beyond the usual limits of such assays; conditions: source organism: Vaccinia virus WR
measurement-label: Kd (nM)
I only need the number, in nM, no unit after it.

Query block: Query: Kd; subject: NLFSKNILKY
Result block: 8770

Query block: // same read-out, input: IVTVTTKDY
Result block: 1690

Query block: // same read-out, input: NITLKIIETY
Result block: 444

Query block: // same read-out, input: DLVKSSFVKK
Result block: 1130

Query block: // same read-out, input: CTFMIITSTK
Result block: 83.5
